experiment: gradient 5% acetonitrile 3 min, to 50% in 2 min, to 85% in 15 min, held 3 min, 100 µL/min; conditions: column: Zorbax Extend-C18 2.1 x 50 mm; eluents: water / acetonitrile, 0.1% formic acid
endpoint: RP-LC retention time (s)
Hi! Could you send only the number? It should be in s, unit omitted.

Exercise: Could you tell me which RP-LC retention time is on file for COc1ccc(Cl)cc1NC(=O)NCC1CN(CC2CC2)CC12CCCCC2 (stereo unspecified) ?
Solution: 786

Exercise: Could you tell me which RP-LC retention time is on file for Cc1ccsc1CN1CCc2[nH]nc(C(=O)N3CCOCC3)c2C1 ?
Solution: 568

Exercise: Could you tell me which RP-LC retention time is on file for CCC(C)N(CC(=O)N(Cc1ccco1)CC1CCCO1)C(=O)c1ccc(F)cc1 (stereo unspecified) ?
Solution: 864

Exercise: Could you tell me which RP-LC retention time is on file for Cc1ccc(NC(=O)Cn2nc(C(=O)N3CCCCC3)c3ccccc32)c(Br)c1 ?
Solution: 973

Exercise: Could you tell me which RP-LC retention time is on file for Cc1cc(C)cc(N2CCC(NC(=O)NCc3cccc(F)c3)C2=O)c1 (stereo unspecified) ?
Solution: 851

Exercise: Could you tell me which RP-LC retention time is on file for CCc1nc2cc(-c3noc(-c4cc(OC)cc(OC)c4)n3)ccc2o1 ?
Solution: 1210

Exercise: Could you tell me which RP-LC retention time is on file for COCCCNC(=O)c1nc(Nc2ccc(C)cc2)c2ccccc2n1 ?
Solution: 709

Exercise: Could you tell me which RP-LC retention time is on file for CC(C)CN(Cc1cccnc1)C1CN(S(=O)(=O)Cc2ccccc2F)C1 ?
Solution: 734

Exercise: Could you tell me which RP-LC retention time is on file for O=c1n(Cc2ccccc2)nc2n1CCN(S(=O)(=O)c1ccc3c(c1)OCCO3)CC2 ?
Solution: 818

Exercise: Could you tell me which RP-LC retention time is on file for Cc1cc(C(=O)N2CCN(c3ccccc3F)CC2)n[nH]1 ?
Solution: 714

Exercise: Could you tell me which RP-LC retention time is on file for COc1ccccc1C(=O)N1CCC2(CC1)NC(=O)c1cc(C)ccc1N2C ?
Solution: 732

Exercise: Could you tell me which RP-LC retention time is on file for CCN(CC)c1nc2ccsc2c(=O)n1CCC(=O)N1CCN(c2ccccc2)CC1 ?
Solution: 919

Exercise: Could you tell me which RP-LC retention time is on file for O=C(Nc1cccnc1)C1(CCO)CCN(c2ncccn2)C1 (stereo unspecified) ?
Solution: 529

Exercise: Could you tell me which RP-LC retention time is on file for CCOC(=O)c1ccc(NC(=O)COc2cc(C)nc(N3CCN(c4ccccc4)CC3)n2)cc1 ?
Solution: 864

Exercise: Could you tell me which RP-LC retention time is on file for Nc1ncnc(Nc2ccccc2Cl)c1[N+](=O)[O-] ?
Solution: 777

Exercise: Could you tell me which RP-LC retention time is on file for CN1CCOc2ccc(NC(=O)c3cc(-c4ccc(F)cc4)n[nH]3)cc2C1=O ?
Solution: 686
